Target: T1, 4H741-bA
T1 chain: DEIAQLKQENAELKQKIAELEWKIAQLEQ
Assay: two-hybrid library CCNG1;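 note: natural log of median RNA to DNA barcode read ratio; higher means stronger binding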

{"columns": ["BINDER", "interaction score"],
 "data": [
  ["DKIAQLKQENAELEQENAELKWKIAQLEQ [4H2717-bA]", -1.48],
  ["DKIAQLEQKNAELEQEIAELEWKIAQLKQ [4H2438-bA]", -0.215],
  ["DEIAQLKQENAELKQKIAELEWKIAQLEQ [4H741-bA]", 0.341],
  ["DKIAQLKQENAELEQEIAELEWENAQLKQ [4H2692-bA]", -0.251]
]}

// provenance: paper PMC10397247
